Data credit: paper PMC12666239

Record type: Kd measurement. Applies to: Nsp3b (SARS-CoV-2 macrodomain) (Severe acute respiratory syndrome coronavirus 2)

{"item smiles": "N#C[C@@]1(c2ccc3c(N)ncnn23)O[C@H](COP(=O)(O)O)[C@@H](O)[C@H]1O", "Kd": "~0.01 mM"}
{"item smiles": "Nc1ncnc2c1ncn2[C@@H]1O[C@H](COP(=O)(O)OP(=O)(O)OP(=O)(O)O)[C@@H](O)[C@H]1O", "Kd": "1.9 to 2.5 mM"}
{"item smiles": "Nc1ncnc2c1ncn2[C@@H]1O[C@H](COP(=O)(O)OP(=O)(O)NP(=O)(O)O)[C@@H](O)[C@H]1O", "Kd": "1.9 to 2.5 mM"}
{"item smiles": "Nc1ncnc2c1ncn2[C@@H]1O[C@H](COP(=O)(O)OP(=O)(O)O)[C@@H](O)[C@H]1O", "Kd": "> 10 mM"}
{"item smiles": "Nc1ncnc2c1ncn2[C@@H]1O[C@H](COP(=O)(O)O)[C@@H](O)[C@H]1O", "Kd": "1.9 to 2.5 mM"}

---

Assay: physchem
assay readout: pKa

{"item smiles": "N#C[C@@]1(c2ccc3c(N)ncnn23)O[C@H](COS(N)(=O)=O)[C@@H](O)[C@H]1O", "reported result": 9.37}

---

Assay: in vitro
Conditions: African green monkey

{"item smiles": "N#C[C@@]1(c2ccc3c(N)ncnn23)O[C@H](COS(N)(=O)=O)[C@@H](O)[C@H]1O", "CC50": "> 40 µM"}

---

Experiment: in vitro
Conditions: African green monkey

{"compound": "N#C[C@@]1(c2ccc3c(N)ncnn23)O[C@H](COS(N)(=O)=O)[C@@H](O)[C@H]1O [compound 3]", "CC50": "> 40 µM"}

---

Molecular target: MERS-CoV macrodomain (Middle East respiratory syndrome-related coronavirus, UniProt K9N7C7)
Sequence (K9N7C7 1110-1276 limits assumed): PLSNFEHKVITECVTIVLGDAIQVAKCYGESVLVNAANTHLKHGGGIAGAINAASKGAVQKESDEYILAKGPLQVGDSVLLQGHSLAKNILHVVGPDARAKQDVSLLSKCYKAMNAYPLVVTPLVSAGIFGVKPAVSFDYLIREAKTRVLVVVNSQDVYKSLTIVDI
pKd: −log10 of the molar value.

{"item smiles": "N#C[C@@]1(c2ccc3c(N)ncnn23)O[C@H](COS(N)(=O)=O)[C@@H](O)[C@H]1O", "pKd": 3.98}
